- System: NCI-H2023
- method-summary: relative viability (nuclei count vs DMSO), 5 days (fraction); higher = more cells survive
- reported-conditions: first compound 0.02 µM
endpoint-name: relative viability

Consider the worked cases shown below.
compound="CC(=O)O[C@@]12CO[C@@H]1C[C@H](O)[C@@]1(C)C(=O)[C@H](O)C3=C(C)[C@@H](OC(=O)[C@H](O)[C@@H](NC(=O)OC(C)(C)C)c4ccccc4)C[C@@](O)([C@@H](OC(=O)c4ccccc4)[C@H]21)C3(C)C [Docetaxel] + Cc1nc(Nc2ncc(C(=O)Nc3c(C)cccc3Cl)s2)cc(N2CCN(CCO)CC2)n1 [Dasatinib] (partner 0.075 µM)" result=0.0567
compound="CC(=O)O[C@@]12CO[C@@H]1C[C@H](O)[C@@]1(C)C(=O)[C@H](O)C3=C(C)[C@@H](OC(=O)[C@H](O)[C@@H](NC(=O)OC(C)(C)C)c4ccccc4)C[C@@](O)([C@@H](OC(=O)c4ccccc4)[C@H]21)C3(C)C [Docetaxel] + O=C(CCCCCCC(=O)Nc1ccccc1)NO [Vorinostat] (partner 1 µM)" result=0.0577
compound="CC(=O)O[C@@]12CO[C@@H]1C[C@H](O)[C@@]1(C)C(=O)[C@H](O)C3=C(C)[C@@H](OC(=O)[C@H](O)[C@@H](NC(=O)OC(C)(C)C)c4ccccc4)C[C@@](O)([C@@H](OC(=O)c4ccccc4)[C@H]21)C3(C)C [Docetaxel] + CS(=O)(=O)CCNCc1ccc(-c2ccc3ncnc(Nc4ccc(OCc5cccc(F)c5)c(Cl)c4)c3c2)o1 [Lapatinib] (partner 2 µM)" result=0.0578
compound="CC(=O)O[C@@]12CO[C@@H]1C[C@H](O)[C@@]1(C)C(=O)[C@H](O)C3=C(C)[C@@H](OC(=O)[C@H](O)[C@@H](NC(=O)OC(C)(C)C)c4ccccc4)C[C@@](O)([C@@H](OC(=O)c4ccccc4)[C@H]21)C3(C)C [Docetaxel] + CC(=O)Nc1cccc(-n2c(=O)n(C3CC3)c(=O)c3c(Nc4ccc(I)cc4F)n(C)c(=O)c(C)c32)c1 [Trametinib] (partner 0.02 µM)" result=0.0628

Would you kindly look at the next entry?
Briefly, relative viability measured for CC(=O)O[C@@]12CO[C@@H]1C[C@H](O)[C@@]1(C)C(=O)[C@H](O)C3=C(C)[C@@H](OC(=O)[C@H](O)[C@@H](NC(=O)OC(C)(C)C)c4ccccc4)C[C@@](O)([C@@H](OC(=O)c4ccccc4)[C@H]21)C3(C)C [Docetaxel] + CC(=O)c1c(C)c2cnc(Nc3ccc(N4CCNCC4)cn3)nc2n(C2CCCC2)c1=O [Palbociclib] (partner 0.5 µM) : 0.0705
